FYI, the data here is from patent US6949522B2.

# Assay Overview: in vitro
# Type: cell-based, human
# Conditions: human
Experimental Endpoint: IC50 at 5 days

1) Cc1cn([C@H]2C[C@H](N=[N+]=[N-])[C@@H](CO)O2)c(=O)[nH]c1=O [AZT, 3′-azido-3′-deoxythymidine, reference compound]    > 100 µM

----------
# Tested on: CEM (T-lymphoblastoid cell line)
# Type: cell-based
Here, each record is paired with measured IC50 data.
Experimental Endpoint: IC50

1. O=c1ccn([C@H]2S[C@@H](CO)C=C2F)c(=O)[nH]1    > 100 µM
2. Nc1nc(F)nc2c1ncn2[C@@H]1S[C@H](CO)C=C1F    1.1 µM
3. Nc1nc2c(ncn2[C@@H]2S[C@H](CO)C=C2F)c(=O)[nH]1    > 100 µM
4. Cc1cn([C@H]2S[C@@H](CO)C=C2F)c(=O)[nH]c1=O    > 100 µM
5. Nc1ccn([C@@H]2S[C@H](CO)C=C2F)c(=O)n1    > 100 µM
6. Nc1nc2c(ncn2[C@H]2S[C@@H](CO)C=C2F)c(=O)[nH]1    10.4 µM
7. Nc1nc(=O)n([C@@H]2S[C@H](CO)C=C2F)cc1F    > 100 µM
8. Nc1nc(=O)n([C@H]2S[C@@H](CO)C=C2F)cc1F    > 100 µM
9. O=c1[nH]cnc2c1ncn2[C@H]1S[C@@H](CO)C=C1F    > 100 µM
